Biological target: undecaprenyl diphosphate synthase (UPPS) (Escherichia coli, UniProt P60472)
Sequence (P60472 whole entry): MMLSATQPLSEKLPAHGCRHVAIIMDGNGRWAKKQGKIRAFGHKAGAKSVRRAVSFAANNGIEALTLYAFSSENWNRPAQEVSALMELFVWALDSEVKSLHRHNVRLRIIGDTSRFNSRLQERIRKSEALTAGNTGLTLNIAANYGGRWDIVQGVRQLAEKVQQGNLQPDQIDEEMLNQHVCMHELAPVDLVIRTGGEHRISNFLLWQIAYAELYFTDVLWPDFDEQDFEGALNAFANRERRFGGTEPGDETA
pIC50: −log10 of the molar value.
// label = condition met if pIC50 is not less than 6, otherwise condition not met

Query: Does the reported pIC50 for O=P(O)(O)C(O)(Cc1cccc(-c2cccc(-c3ccccc3)c2)c1)P(=O)(O)O [Compound 608] fall at or above the 6 mark?
Response: condition met

Query: Does the reported pIC50 for O=P(O)(O)C(O)(CCc1cccc(-c2ccc(-c3ccccc3)cc2)c1)P(=O)(O)O [Compound 618] fall at or above the 6 mark?
Response: condition not met

Query: Does the reported pIC50 for O=P(O)(O)C(O)(CCc1cccc(-c2cccc(-c3ccccc3)c2)c1)P(=O)(O)O [Compound 622] fall at or above the 6 mark?
Response: condition not met

Query: Does the reported pIC50 for O=P(O)(O)C(O)(c1cccc(-c2cccc(-c3ccccc3)c2)c1)P(=O)(O)O [Compound 640] fall at or above the 6 mark?
Response: condition not met

Query: Does the reported pIC50 for O=P(O)(O)C(O)(CCc1cccc(-c2ccccc2-c2ccccc2)c1)P(=O)(O)O [Compound 621] fall at or above the 6 mark?
Response: condition not met

----------
Molecular target: T. brucei FPPS (Trypanosoma brucei, UniProt Q57WF1)
Sequence (Q57WF1 entry or part of it): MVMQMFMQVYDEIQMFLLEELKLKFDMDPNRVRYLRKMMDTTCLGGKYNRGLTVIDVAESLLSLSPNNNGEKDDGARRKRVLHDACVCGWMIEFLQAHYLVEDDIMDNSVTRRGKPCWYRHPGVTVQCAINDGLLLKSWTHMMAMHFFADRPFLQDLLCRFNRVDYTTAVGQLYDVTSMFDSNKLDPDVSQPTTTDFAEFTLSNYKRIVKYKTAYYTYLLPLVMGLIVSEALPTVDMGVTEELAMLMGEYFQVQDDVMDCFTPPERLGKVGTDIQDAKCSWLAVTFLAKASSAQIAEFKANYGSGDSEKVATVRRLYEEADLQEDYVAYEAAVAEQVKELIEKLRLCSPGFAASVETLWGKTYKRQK
Assay: biochemical
Details: read-out: T. brucei FPPS IC50
ENDPOINT NAME: IC50 (nM)
# number only, unit nM dropped from output

Query: What value of measured IC50 is listed for O=P(O)(O)C(O)(C[S+]1CCCCC1)P(=O)(O)O [Compound 6] ?
Response: 400

Query: What value of measured IC50 is listed for C[P+](C)(C)CC(O)(P(=O)(O)O)P(=O)(O)O [Compound 7] ?
Response: 2000

Query: What value of measured IC50 is listed for C[S+](CCCc1ccccc1)CC(O)(P(=O)(O)O)P(=O)(O)O (stereo not drawn) [Compound 23] ?
Response: 180

----------
Please respond with reported Ki for every item in the list.
# number only, unit nM dropped from output

Query: Form field - read-out: Ki; system: UniProt:P14324; submitted item: C[S+](CCCc1ccccc1)CC(O)(P(=O)(O)O)P(=O)(O)O (stereo not drawn)
Sequence (P14324 whole entry): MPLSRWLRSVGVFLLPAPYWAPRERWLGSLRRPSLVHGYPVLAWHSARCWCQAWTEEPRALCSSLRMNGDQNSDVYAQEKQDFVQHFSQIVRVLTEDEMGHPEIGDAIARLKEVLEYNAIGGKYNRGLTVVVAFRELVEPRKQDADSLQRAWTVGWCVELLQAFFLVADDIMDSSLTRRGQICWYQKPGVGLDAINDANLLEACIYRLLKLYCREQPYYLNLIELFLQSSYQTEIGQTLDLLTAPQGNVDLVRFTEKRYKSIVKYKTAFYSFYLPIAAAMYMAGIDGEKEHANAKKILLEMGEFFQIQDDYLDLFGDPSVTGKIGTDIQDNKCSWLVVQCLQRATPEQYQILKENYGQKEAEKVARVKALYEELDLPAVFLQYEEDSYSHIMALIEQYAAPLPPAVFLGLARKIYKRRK
Response: 5.68

Query: Form field - read-out: Ki; system: UniProt:P14324; submitted item: CC[S+](CCCOc1ccccc1)CCC(O)(P(=O)(O)O)P(=O)(O)O (stereo not drawn)
Response: 5.2

Query: Form field - read-out: Ki; system: UniProt:P14324; submitted item: C[P+](C)(C)CC(O)(P(=O)(O)O)P(=O)(O)O
Response: 8.18

----------
System: D. discoideum
Experiment: D. discoideum growth inhibition
Assay type: cell-based, Dictyostelium discoideum
Conditions: read-out: D. discoideum IC50
Please respond with reported pIC50 for every item in the list.
# pIC50 = -log10(concentration in molar units)

Query: What value of measured pIC50 is listed for C[P+](C)(C)CC(O)(P(=O)(O)O)P(=O)(O)O ?
Response: 4.86

Query: What value of measured pIC50 is listed for C[S+](CCCc1ccccc1)CC(O)(P(=O)(O)O)P(=O)(O)O (stereo not shown) ?
Response: 5.73

Query: What value of measured pIC50 is listed for O=P(O)(O)C(O)(C[S+]1CCCCC1)P(=O)(O)O ?
Response: 5.32

Query: What value of measured pIC50 is listed for CC[S+](CCCOc1ccccc1)CCC(O)(P(=O)(O)O)P(=O)(O)O (stereo not shown) ?
Response: 5.37
